protocol.description: HPLC peptide recovery before and after freeze-drying
condition.set: After freeze dry T = 1M, stored at −20° C.
Readings of Amount from non-validated HPLC assay for the listed sequences

Below, each entry is followed by its recorded Amount from non-validated HPLC assay result.
                              sequence_code  test_result
0  TAVITPPTTTTKKARVSTPKPATPSTD (Mut24) [Mut 24]   0.38 mg/mL
1  GFSQPLRRLVLHVVSAAQAERLARAEE (Mut50) [Mut 50]   0.44 mg/mL
2  EFKHIKAFDRTFANNPGPMVVFATPGM (Mut44) [Mut 44]   0.44 mg/mL
3  SFACLRQPSQGPTVGVKGGAAGGGYAQ (Mut29B) [Mut 29b]   0.44 mg/mL
4  CGTAFFINFIAIYHHASRAIPFGTMVA (Mut36) [Mut 36]   0.25 mg/mL

Prompt line: Find the recorded Amount from non-validated HPLC assay belonging to IPSGTTILNCFHDVLSGKLSGGSPGVP (Mut29A) [Mut 29a] and report it.
Response line: 0.34 mg/mL

Prompt line: Need Amount from non-validated HPLC assay of STANYNTSHLNNDVWQIFENPVDWKEK (Mut25) [Mut 25] , thanks.
Response line: 0.50 mg/mL

Prompt line: For the sequence VVDRNPQFLDPVLAYLMKGLCEKPLAS (Mut17) [Mut 17] , what Amount from non-validated HPLC assay is on record?
Response line: 0.23 mg/mL

Prompt line: Field request: Amount from non-validated HPLC assay | item: ECRITSNFVIPSEYWVEEKEEKQKLIQ (Mut45) [Mut 45]
Response line: 0.42 mg/mL
